# maps each entry to its IC50
Target or test system: TYK2 (Homo sapiens)
Construct: endogenous in cells; host or cells: Molt4 (ATCC CRL-1582) and Ramos (ATCC CRL-1596), mixed lysate 1:2
Measurement description: Kinobeads assay, TYK2 (competition binding in mixed Molt4/Ramos cell lysate, dot blot detection)
Test settings: Kinobeads assay, Molt4/Ramos lysate; read-out: TYK2 Band (Kinobeads assay potency, IC50)

Smiles entry	IC50
COc1ccc(F)c(CNc2nc(Nc3cnn(CC(=O)N(C)C)c3)ncc2C)c1F	≤ 10 nM
C[C@H](CO)NC(=O)Cn1cc(Nc2nccc(NCc3c(F)cccc3F)n2)cn1	10 to 100 nM
NC(=O)Cn1cc(Nc2ncc(F)c(NCc3c(Cl)cccc3Cl)n2)cn1	10 to 100 nM
CC(C)NC(=O)Cn1cc(Nc2nccc(NCc3cccc(OC(F)F)c3)n2)cn1	10 to 100 nM
Cn1cc(Nc2nccc(NCc3c(F)cc(F)cc3F)n2)cn1	100 to 1000 nM
OCCn1cc(Nc2ncc(Cl)c(NCc3ccccc3F)n2)cn1	10 to 100 nM
COc1ccc(S(C)(=O)=O)cc1CNc1nc(Nc2cnn(CC(F)F)c2)ncc1F	100 to 1000 nM
COc1ccc(F)c(CNc2nc(Nc3cnn(CC(N)=O)c3)ncc2F)c1F	10 to 100 nM
NC(=O)Cn1cc(Nc2ncc(Cl)c(NCc3c(F)cccc3F)n2)cn1	10 to 100 nM

---

Target or test system: JAK2 (Homo sapiens, UniProt O60674)
Construct: endogenous in cells
Sequence (O60674 whole entry): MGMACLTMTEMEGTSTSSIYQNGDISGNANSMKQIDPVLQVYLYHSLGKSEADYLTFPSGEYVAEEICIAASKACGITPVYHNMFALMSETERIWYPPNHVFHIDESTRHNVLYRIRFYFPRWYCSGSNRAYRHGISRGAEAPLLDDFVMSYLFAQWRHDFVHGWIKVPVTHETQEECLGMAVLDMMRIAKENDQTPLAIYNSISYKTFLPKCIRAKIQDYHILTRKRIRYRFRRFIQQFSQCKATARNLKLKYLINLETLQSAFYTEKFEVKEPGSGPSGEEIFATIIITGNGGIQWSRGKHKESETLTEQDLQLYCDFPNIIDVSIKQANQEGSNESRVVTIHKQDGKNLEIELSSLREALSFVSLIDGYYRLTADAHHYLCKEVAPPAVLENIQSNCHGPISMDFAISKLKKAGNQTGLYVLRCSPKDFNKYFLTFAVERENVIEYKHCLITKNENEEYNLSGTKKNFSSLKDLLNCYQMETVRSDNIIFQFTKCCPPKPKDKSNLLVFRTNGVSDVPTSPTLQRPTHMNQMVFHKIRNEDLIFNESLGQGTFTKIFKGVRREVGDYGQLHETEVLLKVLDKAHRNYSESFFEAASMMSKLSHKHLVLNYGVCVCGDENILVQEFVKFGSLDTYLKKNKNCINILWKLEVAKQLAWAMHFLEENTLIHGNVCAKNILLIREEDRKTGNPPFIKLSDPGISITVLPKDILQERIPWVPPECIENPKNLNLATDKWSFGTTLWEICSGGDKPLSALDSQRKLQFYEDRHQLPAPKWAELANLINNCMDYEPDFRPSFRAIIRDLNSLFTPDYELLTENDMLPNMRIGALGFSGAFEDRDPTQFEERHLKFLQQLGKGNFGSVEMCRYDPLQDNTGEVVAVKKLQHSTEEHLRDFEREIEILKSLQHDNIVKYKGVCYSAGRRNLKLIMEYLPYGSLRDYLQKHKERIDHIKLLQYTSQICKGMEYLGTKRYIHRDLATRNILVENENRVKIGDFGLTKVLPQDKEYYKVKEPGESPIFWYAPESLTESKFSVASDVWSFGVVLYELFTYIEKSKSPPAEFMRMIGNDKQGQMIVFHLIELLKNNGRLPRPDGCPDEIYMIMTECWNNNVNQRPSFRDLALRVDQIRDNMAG
Measurement description: Kinobeads assay, JAK2 (competition binding in mixed Molt4/Ramos cell lysate, dot blot detection)
Test settings: read-out: JAK2 Band (Kinobeads assay potency, IC50)
Endpoint name: IC50

Compound	Assay result
CN(C)C(=O)Cn1cc(Nc2ncc(Cl)c(NCc3c(Cl)cccc3Cl)n2)cn1	0.1 to 1 µM
CC(C)(CF)NC(=O)Cn1cc(Nc2nccc(NCc3c(F)cc(F)cc3F)n2)cn1	1 to 10 µM
CNC(=O)Cn1cc(Nc2ncc(F)c(NCc3cc(S(C)(=O)=O)ccc3OC)n2)cn1	1 to 10 µM
O=C(Cn1cc(Nc2ncc(Cl)c(NCc3ccccc3)n2)cn1)N1CCOCC1	1 to 10 µM
COc1ccc(F)c(CNc2nc(Nc3cnn(CCO)c3)ncc2C)c1F	0.01 to 0.1 µM
CC(C)(CO)NC(=O)Cn1cc(Nc2nccc(NCc3c(F)cc(F)cc3F)n2)cn1	1 to 10 µM
CC(C)N(C)C(=O)Cn1cc(Nc2ncc(F)c(NCc3c(F)cc(F)cc3F)n2)cn1	1 to 10 µM
Cn1cc(Nc2nccc(NCc3c(F)cccc3Cl)n2)cn1	1 to 10 µM
CS(=O)(=O)c1ccc(F)c(CNc2nc(Nc3cn[nH]c3)ncc2F)c1	1 to 10 µM
NC(=O)Cn1cc(Nc2ncc(F)c(NCc3c(F)cccc3F)n2)cn1	1 to 10 µM
CS(=O)(=O)c1ccc(F)cc1CNc1nc(Nc2cnn(CC(N)=O)c2)ncc1F	0.1 to 1 µM
Cn1cc(Nc2nccc(NCc3c(F)cccc3F)n2)cn1	> 10 µM
COC[C@H](C)NC(=O)Cn1cc(Nc2ncc(F)c(NCc3c(F)cc(F)cc3F)n2)cn1	> 10 µM
Cc1scnc1Cn1cc(Nc2ncc(Cl)c(NCc3c(F)cccc3F)n2)cn1	0.1 to 1 µM
O=C(Cn1cc(Nc2nccc(NCc3c(F)cc(F)cc3F)n2)cn1)NCC1COCCO1 (stereo not shown)	1 to 10 µM
COc1ccc(F)c(CNc2nc(Nc3cnn(CC(=O)N(C)C)c3)ncc2Cl)c1F	0.1 to 1 µM
COc1ccccc1CNc1nc(Nc2cnn(CC(N)=O)c2)ncc1Cl	1 to 10 µM
Cn1cc(Nc2ncc(F)c(NCc3cccc(C#N)c3)n2)cn1	1 to 10 µM
OCCn1cc(Nc2ncc(Cl)c(NCc3cccc(F)c3C(F)(F)F)n2)cn1	1 to 10 µM
CC(C)NC(=O)Cn1cc(Nc2ncc(F)c(NCc3c(Cl)ccc(Cl)c3F)n2)cn1	0.1 to 1 µM
COc1ccc(S(C)(=O)=O)cc1CNc1nc(Nc2cnn(C)c2)ncc1Cl	0.1 to 1 µM
[2H]C([2H])(O)C([2H])([2H])n1cc(Nc2ncc(Cl)c(NCc3c(F)cccc3F)n2)cn1	0.1 to 1 µM
COc1ccc(Cl)c(CNc2nc(Nc3cnn(C)c3)ncc2F)c1F	0.1 to 1 µM
CS(=O)(=O)c1ccccc1CNc1nc(Nc2cnn(CC(=O)N3CCOCC3)c2)ncc1Cl	0.1 to 1 µM
C[C@H](CO)NC(=O)Cn1cc(Nc2nccc(NCc3c(F)ccc(C#N)c3F)n2)cn1	1 to 10 µM
CN(C)C(=O)Cn1cc(Nc2ncc(Cl)c(NCc3ccccc3)n2)cn1	1 to 10 µM
CC(C(N)=O)n1cc(Nc2ncc(Cl)c(NCc3ccccc3)n2)cn1 (stereo not shown)	1 to 10 µM
CNC(=O)Cn1cc(Nc2ncc(Cl)c(NCc3cccc(C#N)c3)n2)cn1	1 to 10 µM
Fc1cccc(F)c1CNc1nc(Nc2cnn(C(F)F)c2)ncc1Cl	1 to 10 µM
CCOc1cccc(CNc2nc(Nc3cnn(CCO)c3)ncc2Cl)c1	1 to 10 µM
CC(O)Cn1cc(Nc2ncc(Cl)c(NCc3cccc(F)c3F)n2)cn1 (stereo not shown)	0.1 to 1 µM
CN(C)C(=O)Cn1cc(Nc2ncc(Cl)c(NCc3cccc(C(N)=O)c3)n2)cn1	1 to 10 µM
CNS(=O)(=O)c1ccccc1CNc1nc(Nc2cnn(CCO)c2)ncc1Cl	0.1 to 1 µM
COc1ccc(F)c(CNc2nc(Nc3cnn(C)c3)ncc2F)c1F	1 to 10 µM

---

Target or test system: JAK2 (Homo sapiens)
Construct: endogenous in cells
Measurement description: Kinobeads assay, JAK2 (competition binding in mixed Molt4/Ramos cell lysate, dot blot detection)
Test settings: read-out: JAK2 Band (Kinobeads assay potency, IC50)
pIC50: −log10 of the molar value.

Compound	pIC50
Cc1cnc(Nc2cnn(CC(=O)NC3CCC3)c2)nc1NCc1c(F)cc(F)cc1F [Example I-33]	5.00 to 6.00
CS(=O)(=O)c1ccc(F)cc1CNc1nc(Nc2cn[nH]c2)ncc1F [Example I-486]	6.00 to 7.00
CS(=O)(=O)Cc1cccc(CNc2nc(Nc3cnn(CC(N)=O)c3)ncc2Cl)c1 [Example I-443]	5.00 to 6.00
CC(C)NC(=O)Cn1cc(Nc2nccc(NCc3c(F)cccc3Cl)n2)cn1 [Example I-77]	5.00 to 6.00
COc1ccccc1CNc1nc(Nc2cnn(C)c2)ncc1Cl [Example I-228]	5.00 to 6.00
Cc1cnc(Nc2cnn(CCO)c2)nc1NCc1c(F)cccc1F [Example I-298]	6.00 to 7.00
CC(C)NC(=O)Cn1cc(Nc2nccc(NCc3c(Cl)ccc(Cl)c3F)n2)cn1 [Example I-78]	6.00 to 7.00
O=C(Cn1cc(Nc2ncc(Cl)c(NCc3c(F)cccc3F)n2)cn1)N1CCOCC1 [Example I-161]	6.00 to 7.00
OCCn1cc(Nc2ncc(Cl)c(NCc3cccc(F)c3F)n2)cn1 [Example I-180]	6.00 to 7.00
Clc1cnc(Nc2cnn(Cc3ncco3)c2)nc1NCc1ccccc1 [Example I-249]	5.00 to 6.00
CCOc1ccc(F)c(CNc2nc(Nc3cnn(CC(N)=O)c3)ncc2Cl)c1F [Example I-267]	6.00 to 7.00
NC(=O)Cn1cc(Nc2ncc(Cl)c(NCc3ccccc3CO)n2)cn1 [Example I-288]	5.00 to 6.00
CN(C)C(=O)Cn1cc(Nc2ncc(Cl)c(NCc3cc(Br)cc(F)c3F)n2)cn1 [Example I-263]	6.00 to 7.00
O=C(Cn1cc(Nc2ncc(Cl)c(NCc3cc(F)cc(F)c3)n2)cn1)N1CCOCC1 [Example I-162]	7.00 to 8.00
Cc1cnc(Nc2cnn(CC(F)F)c2)nc1NCc1cccc(F)c1F [Example I-347]	5.00 to 6.00
OCCn1cc(Nc2ncc(F)c(NCc3ccccc3)n2)cn1 [Example I-193]	5.00 to 6.00
CC(O)Cn1cc(Nc2ncc(Cl)c(NCc3ccccc3F)n2)cn1 (stereo not drawn) [Example I-213]	6.00 to 7.00
CC(C)NC(=O)Cn1cc(Nc2nccc(NCc3c(F)cc(F)cc3Cl)n2)cn1 [Example I-94]	5.00 to 6.00

---

# maps each entry to its IC50
Target or test system: TYK2 (Homo sapiens, UniProt P29597)
Construct: endogenous in cells; host or cells: Molt4 (ATCC CRL-1582) and Ramos (ATCC CRL-1596), mixed lysate 1:2
Sequence (P29597 whole entry): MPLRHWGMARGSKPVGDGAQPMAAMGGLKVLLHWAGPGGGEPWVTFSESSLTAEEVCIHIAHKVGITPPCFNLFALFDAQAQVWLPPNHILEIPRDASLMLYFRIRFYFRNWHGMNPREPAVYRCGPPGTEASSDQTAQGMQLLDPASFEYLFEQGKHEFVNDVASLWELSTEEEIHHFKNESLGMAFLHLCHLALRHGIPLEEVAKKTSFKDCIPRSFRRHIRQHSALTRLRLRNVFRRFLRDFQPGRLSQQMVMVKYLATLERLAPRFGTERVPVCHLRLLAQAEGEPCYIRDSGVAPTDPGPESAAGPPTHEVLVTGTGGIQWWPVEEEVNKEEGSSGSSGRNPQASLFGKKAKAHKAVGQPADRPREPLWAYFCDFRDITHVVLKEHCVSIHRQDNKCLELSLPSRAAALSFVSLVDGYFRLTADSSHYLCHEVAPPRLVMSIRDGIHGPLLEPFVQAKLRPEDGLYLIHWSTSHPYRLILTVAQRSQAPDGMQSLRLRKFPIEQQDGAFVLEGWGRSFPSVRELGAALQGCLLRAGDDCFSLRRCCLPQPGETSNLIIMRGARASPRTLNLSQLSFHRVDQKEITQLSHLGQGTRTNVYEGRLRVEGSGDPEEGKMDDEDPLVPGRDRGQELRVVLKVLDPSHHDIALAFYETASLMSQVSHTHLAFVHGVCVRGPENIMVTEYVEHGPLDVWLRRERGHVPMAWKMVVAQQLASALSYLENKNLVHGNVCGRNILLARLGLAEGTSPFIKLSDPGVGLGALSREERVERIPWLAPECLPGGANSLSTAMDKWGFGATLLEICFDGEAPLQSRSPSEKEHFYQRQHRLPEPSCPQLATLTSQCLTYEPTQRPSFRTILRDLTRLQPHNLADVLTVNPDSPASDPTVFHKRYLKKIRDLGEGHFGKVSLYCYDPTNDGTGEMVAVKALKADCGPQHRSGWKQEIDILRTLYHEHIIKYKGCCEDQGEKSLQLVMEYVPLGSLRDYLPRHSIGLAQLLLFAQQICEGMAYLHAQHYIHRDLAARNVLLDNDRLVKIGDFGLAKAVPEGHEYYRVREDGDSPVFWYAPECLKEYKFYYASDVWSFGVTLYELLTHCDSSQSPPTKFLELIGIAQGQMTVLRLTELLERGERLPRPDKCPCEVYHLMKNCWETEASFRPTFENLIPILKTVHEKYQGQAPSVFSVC
Measurement description: Kinobeads assay, TYK2 (competition binding in mixed Molt4/Ramos cell lysate, dot blot detection)
Test settings: Kinobeads assay, Molt4/Ramos lysate; read-out: TYK2 Band (Kinobeads assay potency, IC50)
Method: The compounds of the present invention as described in the previous examples were tested in a Kinobeads™ assay as described for ZAP-70 (WO-A 2007/137867). […] Bound proteins were then eluted and the presence of TYK2 and JAK2 was detected and quantified using specific antibodies in a dot blot procedure and the Odyssey infrared detection system. Dose response curves for individual kinases were generated and IC50 values calculated. […]

Compound	IC50
CS(=O)(=O)c1ccccc1CNc1nc(Nc2cnn(CCO)c2)ncc1Cl [Example I-266]	100 to 1000 nM
Cc1cnc(Nc2cnn(CC(F)(F)F)c2)nc1NCc1cc(F)cc(F)c1F [Example I-351]	1000 to 10000 nM
O=C(Cn1cc(Nc2nccc(NCc3c(F)cc(F)cc3F)n2)cn1)NCC(F)(F)F [Example I-86]	10 to 100 nM
CS(=O)(=O)c1ccc(F)cc1CNc1nc(Nc2cnn(CC(N)=O)c2)ncc1F [Example I-489]	10 to 100 nM
CC(C)(C)NC(=O)Cn1cc(Nc2nccc(NCc3c(F)cc(F)cc3F)n2)cn1 [Example I-51]	10 to 100 nM
C[C@@H](CO)NC(=O)Cn1cc(Nc2nccc(NCc3c(F)cc(F)cc3F)n2)cn1 [Example I-75]	≤ 10 nM
CS(=O)(=O)NCc1cccc(CNc2nc(Nc3cnn(CC(=O)N4CCC[C@H]4C#N)c3)ncc2Cl)c1 [Example I-400]	100 to 1000 nM
COc1ccc(F)c(CNc2nc(Nc3cnn(CCO)c3)ncc2Cl)c1F [Example I-320]	10 to 100 nM
